Source listed as the nanobody polyreactivity screen of Harvey et al. (2022).

assay.details: yeast display, Sf9 membrane polyspecificity reagent, FACS + sequencing; frameworks hold sequencing errors
readout.kind: polyreactivity (PSR sort gate)

Recorded polyreactivity (PSR sort gate), per entry:
Ask: Item QVQLVESGGGLVQAGGSLRLSCAASGRIFIYYAMGWYRQAPGKERELVAAISWSGGRTYYADSVKGRFTISRDNAKNTVYLQMNSLKPEDTAVDYCAGYSFANHGFDYWGQGTQVIVSS has what recorded polyreactivity (PSR sort gate)?
Reply: high polyreactivity

Ask: Requested read-out: polyreactivity (PSR sort gate). Entry: QVQLVESGGGLVQAGGSLRLSCDASGSIIGFYAMVWYRQAPGKERELVASISSSGDSTYYADSVKGRFTFSRDIAKNTVYLQMNSLIPEDTAVYYCAAVVYDIYGYEFDYWGQGTQLTVSS
Reply: low polyreactivity

Ask: GET /values?readout=polyreactivity (PSR sort gate)&item= QVQLVESGGGLVQAGGSLRLSCAASGRIFFFYAMGWYRQAPGKERELVATITWTDGSTDYADSVKGRFTISRDNAKNTVYLQMNSLKPEDTAVYYCAKDEYVSRYDYWGQGTQVTVSS
Reply: low polyreactivity

Ask: Value lookup for polyreactivity (PSR sort gate); key = QVQLVESGGGLVQAGGSLRLSCAASGSTFYRNAMGWYRQAPGKERELVATINRGGSTYYADSVKGRFTISRDNAKNTVYLQRNSLNPEDTAVYYCAKDSYYAGRFIYTPRAKYGYWGQGTQVTVSS
Reply: high polyreactivity

Next:
Ask: Please look up its polyreactivity (PSR sort gate): QVQLVESGGGLVQAAGSLRLSCAASGGTFGWYAKGWYRLAHGKEREFLPAIRYSDGNTYYADSVKRRFTISRDNAKNSVYLQMNSLKPEDSAVYYCAADYVYAYIDGEVAEFYYWGPGTQVTVSS
Reply: high polyreactivity
